Where do the numbers come from? From ChEMBL document CHEMBL1128288.

- Tested on: Morganella morganii
- assay-name: In vitro antibacterial activity measured as minimum inhibitory concentration was evaluated on morganella morganii ATCC 8019 (Mm).
- Type: functional
- condition-notes: Morganella morganii, ATCC 8019; read-out: MIC

{"compound": "C[C@H]1COc2c(N3CC(N)C3)c(F)cc3c(=O)c(C(=O)O)cn1c23", "MIC / µg/mL": 0.06}
{"compound": "C[C@@H]1[C@@H](N)CN1c1c(F)cc2c(=O)c(C(=O)O)cn(C3CC3)c2c1Cl", "MIC / µg/mL": 0.25}
{"compound": "C[C@@H]1[C@@H](N)CN1c1cc2c(cc1F)c(=O)c(C(=O)O)cn2-c1ccc(F)cc1F", "MIC / µg/mL": 1}
{"compound": "C[C@H]1[C@@H](N)CN1c1c(F)cc2c(=O)c(C(=O)O)cn(C3CC3)c2c1F", "MIC / µg/mL": 0.25}
{"compound": "C[C@H]1COc2c(N3CC(N(C)C)C3)c(F)cc3c(=O)c(C(=O)O)cn1c23", "MIC / µg/mL": 0.12}
{"compound": "C[C@@H]1[C@@H](N)CN1c1c(F)c(N)c2c(=O)c(C(=O)O)cn(C3CC3)c2c1F", "MIC / µg/mL": 0.015}
{"compound": "C[C@H](N)C(=O)N[C@@H]1CN(c2cc3c(cc2F)c(=O)c(C(=O)O)cn3-c2ccc(F)cc2F)[C@H]1C", "MIC / µg/mL": 4}
{"compound": "C[C@@H]1[C@@H](N)CN1c1c(F)c(N)c2c(=O)c(C(=O)O)cn(-c3ccc(F)cc3F)c2c1F", "MIC / µg/mL": 0.12}
{"compound": "C[C@H]1COc2c(N3CCN(C)CC3)c(F)cc3c(=O)c(C(=O)O)cn1c23.C[C@H]1COc2c(N3CCN(C)CC3)c(F)cc3c(=O)c(C(=O)O)cn1c23.O", "MIC / µg/mL": 0.03}
{"compound": "C[C@@H]1[C@@H](N)CN1c1nc2c(cc1F)c(=O)c(C(=O)O)cn2C1CC1", "MIC / µg/mL": 0.25}
{"compound": "CCn1cc(C(=O)O)c(=O)c2c(N)c(F)c(N3C[C@H](N)[C@H]3C)c(F)c21", "MIC / µg/mL": 0.06}
{"compound": "CC(C)C[C@H](N)C(=O)N[C@@H]1CN(c2nc3c(cc2F)c(=O)c(C(=O)O)cn3C2CC2)[C@H]1C", "MIC / µg/mL": 0.25}
{"compound": "CC1C(N)CN1c1c(F)cc2c(=O)c(C(=O)O)cn3c2c1OC[C@@H]3C (single isomer, unassigned)", "MIC / µg/mL": 0.015}

* * *

- System: Proteus vulgaris
- assay-name: In vitro antibacterial activity measured as minimum inhibitory concentration was evaluated on proteus vulgaris ATCC 8427 (Pv).
- Type: functional
- condition-notes: Proteus vulgaris, ATCC 8427; read-out: MIC
The label fulfilled is reserved for MIC strictly under 0.5 µg/mL; not fulfilled covers values equal to or above it.

{"compound": "CCC[C@H](N)C(=O)N[C@@H]1CN(c2cc3c(cc2F)c(=O)c(C(=O)O)cn3-c2ccc(F)cc2F)[C@H]1C", "assigned-category": "not fulfilled"}
{"compound": "C[C@H](N)C(=O)N[C@@H]1CN(c2cc3c(cc2F)c(=O)c(C(=O)O)cn3-c2ccc(F)cc2F)[C@H]1C", "assigned-category": "not fulfilled"}
{"compound": "CCNCC1(C)CN(c2c(F)cc3c(=O)c(C(=O)O)cn4c3c2OC[C@@H]4C)C1", "assigned-category": "not fulfilled"}
{"compound": "C[C@H](N)C(=O)N[C@@H](C)C(=O)N[C@@H]1CN(c2nc3c(cc2F)c(=O)c(C(=O)O)cn3C2CC2)[C@H]1C", "assigned-category": "not fulfilled"}
{"compound": "CC(C)C[C@H](N)C(=O)N[C@@H]1CN(c2nc3c(cc2F)c(=O)c(C(=O)O)cn3C2CC2)[C@H]1C", "assigned-category": "fulfilled"}
{"compound": "C[C@@H]1[C@@H](NC(=O)[C@@H](C)N)CN1c1nc2c(cc1F)c(=O)c(C(=O)O)cn2C1CC1", "assigned-category": "not fulfilled"}
{"compound": "CC1COc2c(N3CC(C)(N)C3)c(F)cc3c(=O)c(C(=O)O)cn1c23 (single isomer, unassigned)", "assigned-category": "not fulfilled"}
{"compound": "C[C@@H]1[C@@H](N)CN1c1nc2c(cc1F)c(=O)c(C(=O)O)cn2-c1ccc(F)cc1F", "assigned-category": "not fulfilled"}
{"compound": "C[C@H]1COc2c(N3CC(C)(N)C3)c(F)cc3c(=O)c(C(=O)O)cn1c23", "assigned-category": "fulfilled"}
{"compound": "CC1C(N)CN1c1c(F)cc2c(=O)c(C(=O)O)cn(C3CC3)c2c1Cl (stereo unspecified)", "assigned-category": "fulfilled"}
